Can you tell me melting point for the items I'm about to list?

Exercise: Give the measured melting point of CN(C)C(=S)Oc1ccc(C(=O)c2ccc([N+](=O)[O-])cc2)cc1 .
Key: 168 °C

Exercise: Fill in: melting point of CC(=O)Nc1cc(C)c2c(c1O)C(=O)CC2 is ___
Key: 193 to 198 °C

Exercise: Any idea what its melting point is? The molecule is CCOc1nn(-c2ccc(C(F)(F)F)cn2)cc1CCCCOc1cc(CCC(=O)O)n(-c2ccccc2)n1
Key: 138 to 139 °C

Exercise: // melting point lookup, key: CCOC(=O)c1ccc2c(c1)CC(Cc1cncs1)C2 (stereo not given)
Key: 47 to 49 °C

Exercise: I am curious: what melting point value has been reported for CCCn1cc(C(=O)NCc2ccc(Cl)cc2)c(=O)c2cc(CCl)sc21 ?
Key: 186 to 188 °C

Exercise: Look up melting point: Cn1c(=O)cc(-c2cccc(Cl)c2)c2cc(C(O)c3cncn3Cc3ccc(C#N)cc3)ccc21 (stereo not given)
Key: 150 °C

Exercise: Consider the molecule O=S(=O)(Cc1ccccc1)Nc1ncc(-c2ccccc2)nc1Cc1ccccc1 and give its measured melting point.
Key: 207 to 208 °C

Exercise: What melting point value was documented for this molecule, CN1CCN(c2cccc3c2C[C@H](NC(=O)c2ccc(Cl)cc2)CC3)CC1 ?
Key: 204 to 205 °C

Exercise: Query: melting point; subject: CC(C)CN1CCN(C(=O)c2ccc(OCc3ccccc3)cc2)CC1
Key: 77.6 to 78.4 °C

Exercise: If you can, please state the reported melting point value of CCCCC/C(=C\C=C\C(=O)O)c1ccc(F)cc1 .
Key: 116 to 118 °C

Exercise: Query: melting point; subject: CC(C)(C)OC(=O)CN1CCN(c2ccncc2)C1=O
Key: 147 to 148 °C

Exercise: What value of melting point has been reported for the following molecule? O=C(c1ccc(Cl)cc1)N(c1ccccc1)c1ccc(O)cc1
Key: 224 to 225 °C

Exercise: Dear colleague, I am looking for the recorded melting point of the following molecule: COc1ccc(C(O)C(C)=CC(=O)O)c(C(C)C)c1OC (stereo not given)
Key: 154 to 155 °C

Exercise: So what does the record say about melting point for COC(=O)c1ccc(C(=O)NS(=O)(=O)c2ccc(C(=O)NCCc3ccccc3)cc2)cn1 ?
Key: 228 to 230 °C

Exercise: So what's the measured melting point for this one? CCC1(C)CN(c2c(F)cc3c(=O)c(C(=O)O)cn(C4CC4)c3c2OC)CCC1N (stereo not given)
Key: 152 to 154 °C

Exercise: I'd like to know its melting point. The molecule in question is CC(SC1COC(c2ccc(C(=O)Nc3ccc(OC(F)(F)F)cc3)cc2)OC1)C(O)(Cn1cncn1)c1ccc(F)cc1F (stereo not given)
Key: 180 °C

Exercise: Fill in: melting point of N#Cc1ccc(O)c(O)c1O is ___
Key: 172 °C

Exercise: Consider the molecule NC(=O)c1ccc(-c2ccc(-c3ccn(C(CC(=O)OCc4ccccc4)C(=O)NC(CO)Cc4ccccc4)c3)cc2)cc1 (stereo not given) and give its measured melting point.
Key: 192 to 194 °C

Exercise: Data request, read-out melting point, for CCOC(=O)c1cnn(-c2ccc(OCC3CC3)c(C#N)c2)c1
Key: 147 to 149 °C

Exercise: Quick check: melting point of Cc1cc(CCCCCOc2ccc(C3=NCCO3)cc2)no1 ?
Key: 91 to 92 °C
